System: 885724-159-R-J1-PDC complex spheroid viability
Assay: Anticancer human tumor 885724-159-R-J1-PDC patient-derived pancreatic adenocarcinoma cell line growth inhibition [POLQ]
Conditions: second compound 3.16 µM; first compound 0.0316 µM; hits give low values
# viability, T/C per entry

molecule: O=C(c1cc(Cc2n[nH]c(=O)c3ccccc23)ccc1F)N1CCN(C(=O)C2CC2)CC1 + Nc1ccc(C#CCN(C(=O)Cc2ncc(C(F)(F)F)cc2C(F)(F)F)c2ccc(F)cc2)nn1
viability, T/C: 98%
--
molecule: CC1COCCN1c1cc(-c2ccnn2C)c2ccnc(-c3ccn[nH]3)c2n1 (stereo not drawn) + COC1C(OC(N)=O)C(O)C(Oc2ccc3c(O)c(NC(=O)c4ccc(O)c(CC=C(C)C)c4)c(=O)oc3c2C)OC1(C)C
viability, T/C: 76.4%
--
molecule: COc1ccc([C@@H](O)c2cc(-c3ncnc4cc(N5CCOCC5)ccc34)c(F)cc2Cl)nn1 + Cc1cccc(N(C)C(=O)C2C(O)CCN2c2nc(C)cc(C(F)(F)F)c2C#N)c1
viability, T/C: 100%

====

Test system: 885724-159-R-J1-PDC complex spheroid viability
Assay: Anticancer human tumor 885724-159-R-J1-PDC cell line growth inhibition [POLQ];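 also: spheroids exposed to compounds for 7 days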
Details: second compound 1 µM; first compound 3.16 µM; hits give low values
Catalogue of viability, T/C readings, one per entry.

compound: O=C(c1cc(Cc2n[nH]c(=O)c3ccccc23)ccc1F)N1CCN(C(=O)C2CC2)CC1 + COC1C(OC(N)=O)C(O)C(Oc2ccc3c(O)c(NC(=O)c4ccc(O)c(CC=C(C)C)c4)c(=O)oc3c2C)OC1(C)C
unit-spec: %
viability, T/C: 85.4
//
compound: C=CC(=O)N1CCN(c2nc(=O)n(-c3c(C)ccnc3C(C)C)c3nc(-c4c(O)cccc4F)c(F)cc23)C(C)C1 (stereo not given) + Nc1ccc(C#CCN(C(=O)Cc2ncc(C(F)(F)F)cc2C(F)(F)F)c2ccc(F)cc2)nn1
unit-spec: %
viability, T/C: 110
//
compound: CCCS(=O)(=O)Nc1ccc(F)c(C(=O)c2c[nH]c3ncc(-c4ccc(Cl)cc4)cc23)c1F + COC1C(OC(N)=O)C(O)C(Oc2ccc3c(O)c(NC(=O)c4ccc(O)c(CC=C(C)C)c4)c(=O)oc3c2C)OC1(C)C
unit-spec: %
viability, T/C: 139
//
compound: Nc1ccn(C2OC(CO)C(O)C2(F)F)c(=O)n1 (stereo not given) + Cc1cccc(N(C)C(=O)C2C(O)CCN2c2nc(C)cc(C(F)(F)F)c2C#N)c1
unit-spec: %
viability, T/C: 53.1
//
compound: CCCS(=O)(=O)Nc1ccc(F)c(C(=O)c2c[nH]c3ncc(-c4ccc(Cl)cc4)cc23)c1F + Cc1cccc(N(C)C(=O)C2C(O)CCN2c2nc(C)cc(C(F)(F)F)c2C#N)c1
unit-spec: %
viability, T/C: 160

====

System: 885724-159-R-J1-PDC complex spheroid viability
Assay: Anticancer human tumor 885724-159-R-J1-PDC cell line growth inhibition [POLQ];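 also: spheroids exposed to compounds for 7 days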
Details: second compound 3.16 µM; first compound 3.16 µM; hits give low values

compound: O=c1[nH]cc(F)c(=O)[nH]1 + Cc1cccc(N(C)C(=O)C2C(O)CCN2c2nc(C)cc(C(F)(F)F)c2C#N)c1
target-or-system: 885724-159-R-J1-PDC complex spheroid viability
viability, T/C / %: 87.3
//
compound: CC(C)n1c(=O)n(C)c2cnc3cc(F)c(-c4ccc(OCCCN5CCCCC5)nc4)cc3c21 + Cc1cccc(N(C)C(=O)C2C(O)CCN2c2nc(C)cc(C(F)(F)F)c2C#N)c1
target-or-system: 885724-159-R-J1-PDC complex spheroid viability
viability, T/C / %: 86.2
//
compound: COc1cccc2c1C(=O)c1c(O)c3c(c(O)c1C2=O)CC(O)(C(=O)CO)CC3OC1CC(N)C(O)C(C)O1 (stereo not drawn) + Cc1cccc(N(C)C(=O)C2C(O)CCN2c2nc(C)cc(C(F)(F)F)c2C#N)c1
target-or-system: 885724-159-R-J1-PDC complex spheroid viability
viability, T/C / %: 6.53
